Can you tell me MIC for the items I'm about to list?
# Test system: Pseudomonas aeruginosa W27
# assay.procedure: MIC on clinically isolated bacteria
# Format: cell-based
# recorded.conditions: read-out: MIC
Give bare numbers, in µg/mL.

CC1(C)[C@H](NC(=O)/C(=N\O[C@@H](COc2ccc3c(c2)CN(C(=N)NCCCCN)C3)C(=O)O)c2csc(N)n2)C(=O)N1OS(=O)(=O)O [Compound 36]	0.5
CC1(C)[C@H](NC(=O)/C(=N\O[C@@H](COc2ccc3c(c2)CN(C(=N)NOCCN)C3)C(=O)O)c2csc(N)n2)C(=O)N1OS(=O)(=O)O [Compound 43]	8
CC1(C)[C@H](NC(=O)/C(=N\O[C@@H](COc2ccc3c(c2)CN(C(=N)N(CCN)CCN)C3)C(=O)O)c2csc(N)n2)C(=O)N1OS(=O)(=O)O [Compound 45]	16

Provide the reported MIC of each entry below, same order.
1. CC1(C)[C@H](NC(=O)/C(=N\O[C@@H](COc2ccc3c(c2)CN(C(=N)N[C@@H]2CCCNC2)C3)C(=O)O)c2csc(N)n2)C(=O)N1OS(=O)(=O)O [Compound 41]
2. CC1(C)[C@H](NC(=O)/C(=N\O[C@@H](COc2ccc3c(c2)CN(/C(=N\[C@@H]2CCCNC2)N[C@@H]2CCCNC2)C3)C(=O)O)c2csc(N)n2)C(=O)N1OS(=O)(=O)O [Compound 46]

output:
4
1
